# assay_target: anti-CD28 Fab
# Sequence (VH, as listed by the source, chain 1 of 2): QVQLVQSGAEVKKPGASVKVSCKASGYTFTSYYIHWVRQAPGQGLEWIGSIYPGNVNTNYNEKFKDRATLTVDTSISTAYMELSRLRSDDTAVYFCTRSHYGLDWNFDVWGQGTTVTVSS
# Sequence (VL, as listed by the source, chain 2 of 2): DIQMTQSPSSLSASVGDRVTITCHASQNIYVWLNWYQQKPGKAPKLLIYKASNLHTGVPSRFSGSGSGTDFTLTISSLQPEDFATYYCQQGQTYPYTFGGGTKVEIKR
# test: competition ELISA, peptide titrated 0-100 uM against 1 nM anti-CD28 Fab, plate-bound CD28 as competitor
readout_kind: IC50

* YCAGHAWQYANKCL [Peptide-113] | 102 µM
* SCAAGASYAWAYCL [Peptide-104] | > 100 µM
* ACAGHAWQYINKCL [Peptide-107] | > 100 µM
* YCAGHAWQAINKCL [Peptide-112] | > 100 µM
